tgt: T1, Recombinant human MMR (R&D systems) (human, UniProt P22897 19-1383)
T1 construct: Antigen of the PE-ELISA and the SPR; also called hMMR; recombinant hMMR
T1 sequence: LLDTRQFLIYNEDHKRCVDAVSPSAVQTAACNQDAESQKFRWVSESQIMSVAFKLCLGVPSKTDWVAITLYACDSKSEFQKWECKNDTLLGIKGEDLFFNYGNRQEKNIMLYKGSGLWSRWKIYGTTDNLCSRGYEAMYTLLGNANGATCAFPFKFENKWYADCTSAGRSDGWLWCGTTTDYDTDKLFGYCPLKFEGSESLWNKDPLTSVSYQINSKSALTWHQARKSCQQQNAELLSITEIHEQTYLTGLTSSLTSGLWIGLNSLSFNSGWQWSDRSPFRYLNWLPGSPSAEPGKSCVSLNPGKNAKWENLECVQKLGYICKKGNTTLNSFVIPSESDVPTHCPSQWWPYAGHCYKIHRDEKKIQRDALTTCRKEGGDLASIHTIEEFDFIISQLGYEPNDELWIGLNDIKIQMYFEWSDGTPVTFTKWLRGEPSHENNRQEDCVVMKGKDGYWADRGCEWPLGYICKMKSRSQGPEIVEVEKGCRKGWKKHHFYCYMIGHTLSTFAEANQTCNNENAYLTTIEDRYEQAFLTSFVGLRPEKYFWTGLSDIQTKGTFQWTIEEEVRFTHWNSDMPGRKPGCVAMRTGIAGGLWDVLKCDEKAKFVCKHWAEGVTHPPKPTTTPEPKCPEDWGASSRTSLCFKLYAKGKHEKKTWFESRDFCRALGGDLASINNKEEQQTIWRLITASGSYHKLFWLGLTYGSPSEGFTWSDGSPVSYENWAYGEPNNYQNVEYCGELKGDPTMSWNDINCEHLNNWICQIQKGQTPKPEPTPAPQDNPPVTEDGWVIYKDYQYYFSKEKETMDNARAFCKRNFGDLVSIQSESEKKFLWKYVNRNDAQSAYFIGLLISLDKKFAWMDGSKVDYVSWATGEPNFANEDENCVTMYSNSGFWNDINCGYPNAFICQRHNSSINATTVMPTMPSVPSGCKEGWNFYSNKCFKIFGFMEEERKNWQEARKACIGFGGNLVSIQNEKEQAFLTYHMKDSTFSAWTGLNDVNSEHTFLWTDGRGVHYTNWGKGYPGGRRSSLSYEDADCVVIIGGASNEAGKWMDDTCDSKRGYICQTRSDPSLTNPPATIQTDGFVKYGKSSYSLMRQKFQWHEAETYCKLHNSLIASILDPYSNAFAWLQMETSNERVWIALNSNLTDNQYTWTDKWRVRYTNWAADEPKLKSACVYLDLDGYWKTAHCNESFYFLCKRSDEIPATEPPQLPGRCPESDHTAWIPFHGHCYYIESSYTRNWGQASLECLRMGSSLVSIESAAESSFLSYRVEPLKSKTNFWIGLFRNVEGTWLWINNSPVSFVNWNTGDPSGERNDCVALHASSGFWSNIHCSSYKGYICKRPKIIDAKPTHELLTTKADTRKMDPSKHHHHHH
assay-explanation: SPR, BIAcore T100; human MMR on CM5 chip, sdAb as analyte
So basically, if kon comes in under 500000 M⁻¹ s⁻¹ it's Satisfied, and if it's 500000 M⁻¹ s⁻¹ or more it's Not satisfied.

Exam item: Criterion: kon strictly below 500000 M⁻¹ s⁻¹. Is it met by NbhmMMRm14.4 (VHH, Produced from pMECS with C-terminal HA and 6xHis tag) VHH: QVQLQESGGGLVQAGDSLRLSCAASGRTFSINYMGWYRQAPGKQRELVAAITSGSGSTNYADSVKGRFTISRDNAKNTMYLQMNSLKPEDTAVYYCNADMDSSLSGGYVDVWGQGTQVTVSS ?
Marked response: Satisfied

Exam item: Criterion: kon strictly below 500000 M⁻¹ s⁻¹. Is it met by NbhmMMRm17.72 (VHH, Produced from pMECS with C-terminal HA and 6xHis tag) VHH: QVQLQESGGGLVQPGGSLRLSCAASGSIVSINAMGWYRQAPGKQRELVALVTGSGRTNLADSVKGRFTISRDNAKNTVYLQMNSLKPEDTAVYYCNVLVIGPLEGYDYWGQGTQVTVSS ?
Marked response: Satisfied

Exam item: Criterion: kon strictly below 500000 M⁻¹ s⁻¹. Is it met by NbhMMRm10.19 (VHH, Produced from pMECS with C-terminal HA and 6xHis tag) VHH: QVQLQESGGGLVQPGGSLKLSCAASGSIFSIKTMGWYRQAPGKQRELVAAITSGGSTNYADSVKGRFTISRDNAKNTVYLQMNSLKPEDTAVYYCNADGVVAWDQPYDNYWGQGTQVTVSS ?
Marked response: Not satisfied

Exam item: Criterion: kon strictly below 500000 M⁻¹ s⁻¹. Is it met by NbhMMRm16.95 (VHH, Produced from pMECS with C-terminal HA and 6xHis tag) VHH: QVQLQESGGGLVQPGGSLGLSCAASGRIASISAMGWYRQAPGKQRELVAAITGSGRTNYADSVKGRFTISRDNAKNTVYLQMNSLKPEDTAVYYCNLLMVDYGLGLGTDYWGQGTQVTVSS ?
Marked response: Satisfied

Exam item: Criterion: kon strictly below 500000 M⁻¹ s⁻¹. Is it met by NbhmMMRm26.70 (VHH, Produced from pMECS with C-terminal HA and 6xHis tag) VHH: QVQLQESGGGLVQPGGSLRLSCTASGFPFSSAPMSWVRQAPGKELEWVSYIGYTGTITDYANSVKGRFTISRDNAKNRLYLQMNSLKPEDTAVYFCAQGYARLIADSDLVRGQGTQVTVSS ?
Marked response: Not satisfied

Exam item: Criterion: kon strictly below 500000 M⁻¹ s⁻¹. Is it met by NbhmMMRm19.52 (VHH, Produced from pMECS with C-terminal HA and 6xHis tag) VHH: QVQLQESGGGLVQAGGSLRLSCLASGDTFSNYVMAWFRQAPGKEREIVAAIRLSGARYVPDSVKGRFTISRDNAKNAMYLQMTSLKPEDTARYYCAAGHTWGQYAYWGQGTQVTVSS ?
Marked response: Satisfied

Exam item: Criterion: kon strictly below 500000 M⁻¹ s⁻¹. Is it met by NbhMMRm5.38 (VHH, Produced from pMECS with C-terminal HA and 6xHis tag; also called NbhmMMRm5.38; Nb5.38) VHH: QVQLQESGGGLVQAGGSLRLSCAASGFTDDDYDIGWFRQAPGKEREGVSCISSSDGSTYYADSVKGRFTISSDNAKNTVYLQMNSLKPEDTAVYYCAADFFRWDSGSYYVRGCRHATYDYWGQGTQVTVSS ?
Marked response: Satisfied
